Exercise: for every item that follows, state its recorded protein stability index.
B1: KRT13 (parent)
chain: YGGGLGGGFGGGFAGGFVDFGACD

Variants of: B1
Protocol Description: protein stability index of a GFP-peptide fusion (GPS, HEK-293T) (PSI 1-6); higher = more stable;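 further: lentivirally expressed fusions sorted by FACS into six bins by GFP to DsRed ratio, PSI derived from sequencing read proportions per bin multiplied by bin number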
Condition Parameters: c terminus: a fixed tail appended
Give bare numbers.

Worked cases, answers included:
# Mutant Label, Measurement
records = [
    ("G6E", 2.26),
    ("G21T", 2.69),
    ("G6F", 1.68),
]

// batch mode: one protein stability index value per listed entry
1. L5H
2. D24K
3. G15E
4. F13K
5. G8Q
6. F17H
7. F9P
8. G10N

OUTPUT:
1.8
1.43
1.89
2.25
1.23
2.06
1.75
1.38

Each of the following entries comes with a recorded value; kindly state protein stability index for each.
1. G10V
2. C23T
3. G10R
4. G16R
5. C23I
6. G21E
7. G10T

OUTPUT:
1: 1.93; 2: 1.81; 3: 1.91; 4: 1.8; 5: 1.53; 6: 1.88; 7: 1.26

Hi there! I need protein stability index for each item below, if you can.
1. L5V
2. G7R
3. L5Q
4. G6R
5. G6C
6. G16S
7. C23E
8. G21Q

OUTPUT:
1. 2.73
2. 1.74
3. 2.02
4. 1.54
5. 2.27
6. 1.83
7. 2.14
8. 1.76

Below are some variants; for each one, tell me its protein stability index.
1. G16H
2. Y1Q
3. D24T
4. F20A
5. G2K
6. G4D

OUTPUT:
1. 1.4
2. 3.12
3. 1.91
4. 1.69
5. 1.86
6. 2.52
